The molecules below each have a reported Ki tested on Prothrombin (Homo sapiens, UniProt P00734); the values come from various publications.
Reply numerically in µM, unit not repeated.

Give the reported Ki for this molecule. `COC(=O)Nc1ccc(-c2cc([C@H](Cc3ccccc3)NC(=O)/C=C/c3cc(Cl)ccc3-n3cnnn3)c(Cl)nn2)cc1` 10.6

Give the reported Ki for this molecule. N=C(N)NCCCC(NC(=O)[C@@H]1CC[C@H]2CN(C(=O)[C@@H](O)c3ccccc3)CC(=O)N21)C(=O)c1nccs1 (stereo in doubt; 29) 0.016

Give the reported Ki for this molecule. `Cc1cccc2c1cc(C(=O)NCc1cc(Cl)cc(Cl)c1)n2Cc1cccc(C(=N)N)c1` 1.61
